- Experimental Target: T1, SNTG1, Q9NSN8
- T1 sequence (Q9NSN8 52-150, limits assumed, looked up): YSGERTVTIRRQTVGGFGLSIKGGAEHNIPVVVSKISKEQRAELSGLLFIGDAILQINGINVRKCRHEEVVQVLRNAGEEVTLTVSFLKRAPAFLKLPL
- Experiment Summary: holdup assay
- Design: key: below the threshold = too weak to quantify, mostly under pKd 3.1 to 4
- Details: plain residues with an end cap or a label only (N-terminal biotin on a linker: ado-ado)
Experimental Readout: pKd

Worked cases, pKd given:
IPLDGETEEL [MYOZ1, Q9NP98]
below the threshold
EKKTLIGIKL [GOT1L1, Q8NHS2]
below the threshold
PRISRSQSEL [CCDC134, Q9H6E4]
below the threshold
DTTVPESEDL [MYOZ2, Q9NPC6]
below the threshold

Lab note: measured pKd of PLSPEQPTKL [TRIM50, Q86XT4] was below the threshold

Lab note: measured pKd of AKPSRISTVV [IQSEC2, Q5JU85] was below the threshold
